Cited source for all entries: ChEMBL document CHEMBL1146061

Assay: Half life in Han Wistar rat iv
Type: ADME, organism-based
Settings: in vivo
Assignment: determine reported half-life for the given compounds.
One number for each entry, in h.

Here are 5 compounds together with their reported answers.
CCCC[C@H](NC(=O)O[C@@H]1C(=O)N(C(=O)Nc2ccc(C(F)(F)F)cc2)CC1(C)C)C(=O)C(=O)Nc1cc[nH]n1
1.25
CCCC[C@H](NC(=O)O[C@@H]1C(=O)N(C(=O)c2ccno2)CC1(C)C)C(=O)C(=O)N[C@H](C)c1ccccc1
0.6
CCCC[C@H](NC(=O)O[C@@H]1C(=O)N(S(=O)(=O)c2ccccc2)CC1(C)C)C(=O)C(=O)N[C@H](C)c1ccccc1
2.5
CCCC[C@H](NC(=O)O[C@@H]1C(=O)N(C(=O)c2cccnc2)CC1(C)C)C(=O)C(=O)N[C@H](C)c1ccccc1
1.57
CCCC[C@H](NC(=O)O[C@@H]1C(=O)N(C(=O)Nc2c(C)noc2C)CC1(C)C)C(=O)C(=O)N[C@H](C)c1ccccc1
0.583

QUERY: Consider the compound `CCCC[C@H](NC(=O)O[C@@H]1C(=O)N(C(=O)NCc2ccccc2)CC1(C)C)C(=O)C(=O)N[C@H](C)c1ccccc1` . State its measured half-life.
RESULT: 1.02
